The measured values listed here are drawn from patent US8883963B2.

assay: Stability in liver microsomes; assay type: in vitro ADME; details: 2 μM peptidomimetic, human liver microsomes, 37° C., 24 h
Starred links: 1 amine or outer side, 2 acyl side, 3 side chain; linkers in the order of their positions; H or OH if unused. Non-standard residues stand in square brackets, D forms with d. Residues, ends and D or L forms follow the SMILES beside them. ξ: configuration not given here. Leu(5,5,5,5',5',5'-F6) = N[C@@H](CC(C(F)(F)F)C(F)(F)F)C(=O)O; ξBip(2'-Et-4'-OMe) = CCc1cc(OC)ccc1-c1ccc(CC(N)C(=O)O)cc1; ξNva(5-(4-Cl-2-MePh)) = Cc1cc(Cl)ccc1CCCC(N)C(=O)O; X1 = O=C(C(CCCc1ccc(C(F)(F)F)cc1F)N[*:1])[*:2]; ξNva(5-(3-Cl-Ph)) = NC(CCCc1cccc(Cl)c1)C(=O)O; ξαMePhe(2-F) = CC(N)(Cc1ccccc1F)C(=O)O; Aib = CC(C)(N)C(=O)O
Consider the following molecules and their measured % degradation of peptidomimetics in 24 h when incubated with liver microsomes readings.
parameter-measured: % degradation of peptidomimetics in 24 h when incubated with liver microsomes (%)

{"molecule": "CCc1cc(OC)ccc1-c1ccc(CC(NC(=O)[C@H](CC(=O)O)NC(=O)[C@H](CO)NC(=O)[C@@H](NC(=O)[C@H](Cc2ccccc2)NC(=O)[C@@H](NC(=O)CNC(=O)[C@H](CCC(N)=O)NC(=O)[C@H](CO)NC(=O)[C@@H](N)Cc2c[nH]cn2)[C@@H](C)O)[C@@H](C)O)C(=O)NC(CCCc2ccc(C(F)(F)F)cc2F)C(N)=O)cc1 (stereo partly shown) [compound 49] (H-HSQGTFTSD[ξBip(2'-Et-4'-OMe)][X1]-NH2)", "observed-value": 81}
{"molecule": "CCc1cc(OC)ccc1-c1ccc(CC(NC(=O)[C@H](CC(=O)O)NC(=O)[C@H](CO)NC(=O)[C@@H](NC(=O)[C@H](Cc2ccccc2)NC(=O)[C@@H](NC(=O)CNC(=O)[C@H](CCC(N)=O)NC(=O)[C@H](CO)NC(=O)[C@@H](N)Cc2c[nH]cn2)[C@@H](C)O)[C@@H](C)O)C(=O)NC(CCCc2ccccc2C(F)(F)F)C(N)=O)cc1 (single isomer, unassigned) [compound 47]", "observed-value": 79}
{"molecule": "CCc1cc(OC)ccc1-c1ccc(CC(NC(=O)[C@H](CC(=O)O)NC(=O)[C@H](CO)NC(=O)[C@@H](NC(=O)[C@H](Cc2ccccc2)NC(=O)[C@@H](NC(=O)CNC(=O)[C@H](CCC(N)=O)NC(=O)C2(NC(=O)[C@@H](N)Cc3c[nH]cn3)CC2)[C@@H](C)O)[C@@H](C)O)C(=O)NC(CCCc2ccc(F)cc2F)C(N)=O)cc1 (single isomer, unassigned) [compound 70]", "observed-value": 78}
{"molecule": "CCc1cc(OC)ccc1-c1ccc(CC(CNC(CCCc2ccccc2)C(N)=O)NC[C@H](CC(=O)O)NC(=O)[C@H](CO)NC(=O)[C@@H](NC(=O)C(C)(Cc2ccccc2F)NC(=O)[C@@H](NC(=O)CNC(=O)[C@H](CCC(N)=O)NC(=O)C(C)(C)NC(=O)[C@H](Cc2c[nH]cn2)NC(=O)OC)[C@@H](C)O)[C@@H](C)O)cc1 (single isomer, unassigned) [compound 194]", "observed-value": 84}
{"molecule": "CCc1cc(OC)ccc1-c1ccc(CC(NC(=O)[C@H](CC(=O)O)NC(=O)[C@H](CO)NC(=O)[C@@H](NC(=O)[C@H](Cc2ccccc2)NC(=O)[C@@H](NC(=O)CNC(=O)[C@H](CCC(N)=O)NC(=O)[C@H](CO)NC(=O)[C@@H](N)Cc2c[nH]cn2)[C@@H](C)O)[C@@H](C)O)C(=O)NC(CCCc2ccc(Cl)cc2C)C(N)=O)cc1 (stereo partly shown) [compound 8] (H-HSQGTFTSD[ξBip(2'-Et-4'-OMe)][ξNva(5-(4-Cl-2-MePh))]-NH2)", "observed-value": 35}
{"molecule": "CCc1cc(OC)ccc1-c1ccc(CC(NC(=O)[C@H](CC(=O)O)NC(=O)[C@H](CO)NC(=O)[C@@H](NC(=O)C(C)(Cc2ccccc2F)NC(=O)[C@@H](NC(=O)CNC(=O)[C@H](CC(C(F)(F)F)C(F)(F)F)NC(=O)C(C)(C)NC(=O)[C@@H](N)Cc2c[nH]cn2)[C@@H](C)O)[C@@H](C)O)C(=O)NC(CCCc2cccc(Cl)c2)C(N)=O)cc1 (stereo partly shown) [compound 236] (H-H[Aib][Leu(5,5,5,5',5',5'-F6)]GT[ξαMePhe(2-F)]TSD[ξBip(2'-Et-4'-OMe)][ξNva(5-(3-Cl-Ph))]-NH2)", "observed-value": 35}
{"molecule": "CCc1cc(OC)ccc1-c1ccc(CC(CNC(CCCc2ccccc2)C(N)=O)NC[C@H](CC(=O)O)NC(=O)[C@H](CO)NC(=O)[C@@H](NC(=O)C(C)(Cc2ccccc2F)NC(=O)[C@@H](NC(=O)CNC(=O)C(CCC#N)NC(=O)C(C)(C)NC(=O)[C@@H](N)Cc2c[nH]cn2)[C@H](C)O)[C@H](C)O)cc1 (single isomer, unassigned) [compound 202]", "observed-value": 33}
